system: Calu-3; assay: cell viability relative to DMSO; higher = less toxic; details: 72 h; 10000 nM
Rule for this label: Met means cell viability is less than 90%; Not met means cell viability is at least 90%.

Field: example entries. Status: answers known.
>>> df
                                   compound  class_name
0  CC(CC(C(N)=O)(c1ccccc1)c1ccccc1)N(C)C (stereo not drawn) [aminopentamide]     Not met
1                     CC(=O)Oc1ccccc1C(=O)O     Not met
2  OC[C@@H](O)[C@@H](O[C@@H]1O[C@H](CO)[C@H](O)[C@H](O)[C@H]1O)[C@H](O)[C@@H](O)CO [D-LACTITOL MONOHYDRATE]     Not met
3  CCCCC(=O)O[C@]1(C(=O)CO)CC[C@H]2[C@@H]3CCC4=CC(=O)CC[C@]4(C)[C@H]3[C@@H](O)C[C@@]21C [hydrocortisone-valerate]     Not met
4  CN1CCN(CCCN2c3ccccc3Sc3ccc(C(F)(F)F)cc32)CC1         Met

Task item: # TODO verify cell viability < 90% strictly for this compound: "Oc1noc2c1CCNC2"
Reply: Not met

Data provenance: the supplement of paper PMC13380429
